Test system: CAF1 mice, leiomyosarcoma No.2 ip, survival T/C%
Assay: NCI In Vivo Anticancer Drug Screen. Data for tumor model Leiomyosarcoma (No. 2) (intraperitoneal) in CAF1 mice
Conditions: endpoint: mean survival time; dose: 2.5 mg/kg/injection; schedule: Q01DX010 (ip); vehicle: saline
Inconclusive results and toxic doses are left out. How the source made its calls: active means survival T/C of 150% or more; inactive means T/C below 125% in these data.
# valid calls are Y (active), N (inactive); nothing else

These solved cases illustrate the format of a correct answer.
SMI | ANSWER_LABEL
O=C(O)c1[nH]c(=O)[nH]c(=O)c1F | N
N#[N+]c1cnc([O-])[nH]c1=O | Y
N=C(N)SCc1c2ccccc2c(CSC(=N)N)c2ccccc12 | Y

Note: attention shifts to another entry.
Task: Entry Oc1cc(CN(CCCl)CCCl)c(O)cc1CN(CCCl)CCCl : call = ?
Result: Y
